Tested on: 616215-338-R-J1-PDC complex spheroid viability
MEASUREMENT_NOTES: Anticancer human tumor 616215-338-R-J1-PDC patient-derived colon adenocarcinoma cell line growth inhibition [POLQ]
STATED_CONDITIONS: second compound 0.1 µM; first compound 0.316 µM; active compounds read low
Description: Multicellular complex tumor spheroid response to Polymerase (POL) inhibitors (novobiocin, ART-558, RP6685) in combination with a variety of drugs and investigational agents in selected tumor cell lines The POL inhibitors (novobiocin, ART-558, and RP6685) were evaluated both individually and in combination with standard of care and investigational anticancer small molecules within a complex spheroid model of solid tumors. . […]
METRIC: viability, T/C (%)
Reply with just the number (in %).

// map CNCc1ccc(-c2[nH]c3cc(F)cc4c3c2CCNC4=O)cc1 + Nc1ccc(C#CCN(C(=O)Cc2ncc(C(F)(F)F)cc2C(F)(F)F)c2ccc(F)cc2)nn1 to recorded viability, T/C (system: 616215-338-R-J1-PDC complex spheroid viability)
90.3

What about C#Cc1c(F)ccc2cc(O)cc(-c3ncc4c(N5CC6CCC(C5)N6)nc(OCC56CCCN5CC(F)C6)nc4c3F)c12 (stereo unspecified) + Cc1cccc(N(C)C(=O)C2C(O)CCN2c2nc(C)cc(C(F)(F)F)c2C#N)c1 ?
103

What about O=C(c1cc(Cc2n[nH]c(=O)c3ccccc23)ccc1F)N1CCN(C(=O)C2CC2)CC1 + COC1C(OC(N)=O)C(O)C(Oc2ccc3c(O)c(NC(=O)c4ccc(O)c(CC=C(C)C)c4)c(=O)oc3c2C)OC1(C)C ?
98.5

What about Nc1ccn(C2OC(CO)C(O)C2(F)F)c(=O)n1 (stereo unspecified) + Cc1cccc(N(C)C(=O)C2C(O)CCN2c2nc(C)cc(C(F)(F)F)c2C#N)c1 ?
23.4

What about Nc1ccn(C2OC(CO)C(O)C2(F)F)c(=O)n1 (stereo unspecified) + Nc1ccc(C#CCN(C(=O)Cc2ncc(C(F)(F)F)cc2C(F)(F)F)c2ccc(F)cc2)nn1 ?
12.6

What about CC1COCCN1c1cc(C2(O)CC3CCC(C2)O3)c2cnn(-c3ccn[nH]3)c2n1 (stereo unspecified) + COC1C(OC(N)=O)C(O)C(Oc2ccc3c(O)c(NC(=O)c4ccc(O)c(CC=C(C)C)c4)c(=O)oc3c2C)OC1(C)C ?
72

###

Test system: 616215-338-R-J1-PDC complex spheroid viability
MEASUREMENT_NOTES: Anticancer human tumor 616215-338-R-J1-PDC cell line growth inhibition [POLQ];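 also: spheroids exposed to compounds for one week before readout; percent viability relative to DMSO vehicle wells taken as 100%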
STATED_CONDITIONS: second compound 1 µM; first compound 0.0316 µM; active compounds read low
Experimental: Multicellular complex tumor spheroid response to Polymerase (POL) inhibitors (novobiocin, ART-558, RP6685) in combination with a variety of drugs and investigational agents in selected tumor cell lines The POL inhibitors (novobiocin, ART-558, and RP6685) were evaluated both individually and in combination with standard of care and investigational anticancer small molecules within a complex spheroid model of solid tumors. . […]
Recorded measurements of viability, T/C, one per entry
Reply with just the number (in %).

COMPOUND	viability, T/C (%)
CC1COCCN1c1cc(C2(S(C)(=N)=O)CC2)nc(-c2ccnc3[nH]ccc23)n1 (stereo not drawn) + Nc1ccc(C#CCN(C(=O)Cc2ncc(C(F)(F)F)cc2C(F)(F)F)c2ccc(F)cc2)nn1	108
CC1COCCN1c1cc(C2(O)CC3CCC(C2)O3)c2cnn(-c3ccn[nH]3)c2n1 (stereo not drawn) + Cc1cccc(N(C)C(=O)C2C(O)CCN2c2nc(C)cc(C(F)(F)F)c2C#N)c1	105

API: the following record is the query input.
// map O=C(c1cc(Cc2n[nH]c(=O)c3ccccc23)ccc1F)N1CCN(C(=O)C2CC2)CC1 + Nc1ccc(C#CCN(C(=O)Cc2ncc(C(F)(F)F)cc2C(F)(F)F)c2ccc(F)cc2)nn1 to recorded viability, T/C (system: 616215-338-R-J1-PDC complex spheroid viability)
99.8
